src = ChEMBL document CHEMBL1134010

system: Mus musculus; experiment: Toxicity at a dose of 100 mg/kg in mice; Death; conditions: in vivo
Positions of bridges follow the written chain, without caps; N, C: chain ends. Non-standard residues stand in square brackets, D forms with d. Residues, ends and D or L forms follow the SMILES beside them. *: point of attachment. Tetradecanoyl(3R-OH) = CCCCCCCCCCC[C@@H](O)CC(=O)*; Asp(3S-OH) = N[C@H](C(=O)O)[C@H](O)C(=O)O; Thr(4-Cl) = N[C@H](C(=O)O)[C@H](O)CCl; aThr = C[C@H](O)[C@H](N)C(=O)O; dDab = NCC[C@@H](N)C(=O)O; Dab = NCC[C@H](N)C(=O)O; Dhb = C/C=C(\N)C(=O)O; NHcPr = C1CC1N*
RESULT TYPE: Toxicity

COMPOUND	RECORDED RESULT
C/C=C1\NC(=O)[C@H]([C@H](C)O)NC(=O)[C@H](CCN)NC(=O)[C@H](CCCCN)NC(=O)[C@H](CC(=O)NC2CC2)NC(=O)[C@@H](CCN)NC(=O)[C@@H](NC(=O)C[C@H](O)CCCCCCCCCCC)COC(=O)[C@H]([C@H](O)CCl)NC(=O)[C@H]([C@H](O)C(=O)O)NC1=O ({Tetradecanoyl(3R-OH)}-S[dDab]D(NHcPr)K[Dab][aThr][Dhb][Asp(3S-OH)][Thr(4-Cl)]; ester 1-C)	Death

###

Consider the following compounds and their measured MIC readings.
system: Candida albicans; experiment: In vitro minimum inhibitory concentration (MIC) against Candida albicans.; assay type: functional
Positions of bridges follow the written chain, without caps; N, C: chain ends. Non-standard residues stand in square brackets, D forms with d. Residues, ends and D or L forms follow the SMILES beside them. Groups on a side chain read outwards from the residue. *: point of attachment. Tetradecanoyl(3R-OH) = CCCCCCCCCCC[C@@H](O)CC(=O)*; Asp(3S-OH) = N[C@H](C(=O)O)[C@H](O)C(=O)O; Thr(4-Cl) = N[C@H](C(=O)O)[C@H](O)CCl; aThr = C[C@H](O)[C@H](N)C(=O)O; dDab = NCC[C@@H](N)C(=O)O; Dab = NCC[C@H](N)C(=O)O; Dhb = C/C=C(\N)C(=O)O
RESULT TYPE: MIC

COMPOUND	RESULT TYPE	RECORDED RESULT
C/C=C1\NC(=O)[C@H]([C@H](C)O)NC(=O)[C@H](CCN)NC(=O)[C@H](CCCCN)NC(=O)[C@H](CC(=O)NCCN)NC(=O)[C@@H](CCN)NC(=O)[C@@H](NC(=O)C[C@H](O)CCCCCCCCCCC)COC(=O)[C@H]([C@H](O)CCl)NC(=O)[C@H]([C@H](O)C(=O)O)NC1=O	MIC	10 µg/mL
C/C=C1\NC(=O)[C@H]([C@@H](C)O)NC(=O)[C@H](CCN)NC(=O)[C@H](CCCCN)NC(=O)[C@H](CC(=O)N[C@@H](CCCCN)C(=O)OC)NC(=O)[C@@H](CCN)NC(=O)[C@@H](NC(=O)C[C@H](O)CCCCCCCCCCC)COC(=O)[C@H]([C@H](O)CCl)NC(=O)[C@H]([C@H](O)C(=O)O)NC1=O	MIC	1.25 µg/mL
C/C=C1\NC(=O)[C@H]([C@H](C)O)NC(=O)[C@H](CCN)NC(=O)[C@H](CCCCN)NC(=O)[C@H](CC(=O)NCC(=O)OC)NC(=O)[C@@H](CCN)NC(=O)[C@@H](NC(=O)C[C@H](O)CCCCCCCCCCC)COC(=O)[C@H]([C@H](O)CCl)NC(=O)[C@H]([C@H](O)C(=O)O)NC1=O ({Tetradecanoyl(3R-OH)}-S[dDab]D([Gly-OMe])K[Dab][aThr][Dhb][Asp(3S-OH)][Thr(4-Cl)]; ester 1-C)	MIC	1 µg/mL
C/C=C1\NC(=O)[C@H]([C@H](C)O)NC(=O)[C@H](CCN)NC(=O)[C@H](CCCCN)NC(=O)[C@H](CC(=O)NCCCC)NC(=O)[C@@H](CCN)NC(=O)[C@@H](NC(=O)C[C@H](O)CCCCCCCCCCC)COC(=O)[C@H]([C@H](O)CCl)NC(=O)[C@H]([C@H](O)C(=O)O)NC1=O	MIC	5 µg/mL
C/C=C1\NC(=O)[C@H]([C@H](C)O)NC(=O)[C@H](CCN)NC(=O)[C@H](CCCCN)NC(=O)[C@H](CC(=O)NCCCCCCCCC)NC(=O)[C@@H](CCN)NC(=O)[C@@H](NC(=O)C[C@H](O)CCCCCCCCCCC)COC(=O)[C@H]([C@H](O)CCl)NC(=O)[C@H]([C@H](O)C(=O)O)NC1=O	MIC	20 µg/mL

###

Consider the following compounds and their measured MIC readings.
tested on: Candida albicans; experiment: In vitro minimum inhibitory concentration (MIC) against Candida albicans.; type: functional
Positions of bridges follow the written chain, without caps; N, C: chain ends. Non-standard residues stand in square brackets, D forms with d. Residues, ends and D or L forms follow the SMILES beside them. *: point of attachment. Tetradecanoyl(3R-OH) = CCCCCCCCCCC[C@@H](O)CC(=O)*; Asp(3S-OH) = N[C@H](C(=O)O)[C@H](O)C(=O)O; Thr(4-Cl) = N[C@H](C(=O)O)[C@H](O)CCl; aThr = C[C@H](O)[C@H](N)C(=O)O; dDab = NCC[C@@H](N)C(=O)O; Dab = NCC[C@H](N)C(=O)O; Dhb = C/C=C(\N)C(=O)O
RESULT TYPE: MIC (µg/mL)

COMPOUND	UNIT SPEC	RECORDED RESULT
C/C=C1\NC(=O)[C@H]([C@H](C)O)NC(=O)[C@H](CCN)NC(=O)[C@H](CCCCN)NC(=O)[C@H](CC(=O)NCCCCCCN(C)C)NC(=O)[C@@H](CCN)NC(=O)[C@@H](NC(=O)C[C@H](O)CCCCCCCCCCC)COC(=O)[C@H]([C@H](O)CCl)NC(=O)[C@H]([C@H](O)C(=O)O)NC1=O	µg/mL	5
C/C=C1\NC(=O)[C@H]([C@H](C)O)NC(=O)[C@H](CCN)NC(=O)[C@H](CCCCN)NC(=O)[C@H](CC(N)=O)NC(=O)[C@@H](CCN)NC(=O)[C@@H](NC(=O)C[C@H](O)CCCCCCCCCCC)COC(=O)[C@H]([C@H](O)CCl)NC(=O)[C@H]([C@H](O)C(=O)O)NC1=O ({Tetradecanoyl(3R-OH)}-S[dDab]NK[Dab][aThr][Dhb][Asp(3S-OH)][Thr(4-Cl)]; ester 1-C)	µg/mL	2.5
C/C=C1\NC(=O)[C@H]([C@H](C)O)NC(=O)[C@H](CCN)NC(=O)[C@H](CCCCN)NC(=O)[C@H](CC(=O)O)NC(=O)[C@@H](CCN)NC(=O)[C@@H](NC(=O)C[C@H](O)CCCCCCCCCCC)COC(=O)[C@H]([C@H](O)CCl)NC(=O)[C@H]([C@H](O)C(=O)O)NC1=O [PSEUDOMYCIN B] ({Tetradecanoyl(3R-OH)}-S[dDab]DK[Dab][aThr][Dhb][Asp(3S-OH)][Thr(4-Cl)]; ester 1-C)	µg/mL	0.625

###

test system: Mus musculus; assay: Toxicity at a dose of 125 mg/kg in mice; Death; conditions: in vivo
Positions of bridges follow the written chain, without caps; N, C: chain ends. Non-standard residues stand in square brackets, D forms with d. Residues, ends and D or L forms follow the SMILES beside them. *: point of attachment. Tetradecanoyl(3R-OH) = CCCCCCCCCCC[C@@H](O)CC(=O)*; Asp(3S-OH) = N[C@H](C(=O)O)[C@H](O)C(=O)O; Thr(4-Cl) = N[C@H](C(=O)O)[C@H](O)CCl; aThr = C[C@H](O)[C@H](N)C(=O)O; dDab = NCC[C@@H](N)C(=O)O; Dab = NCC[C@H](N)C(=O)O; Dhb = C/C=C(\N)C(=O)O

MOLECULE	Toxicity
C/C=C1\NC(=O)[C@H]([C@H](C)O)NC(=O)[C@H](CCN)NC(=O)[C@H](CCCCN)NC(=O)[C@H](CC(=O)O)NC(=O)[C@@H](CCN)NC(=O)[C@@H](NC(=O)C[C@H](O)CCCCCCCCCCC)COC(=O)[C@H]([C@H](O)CCl)NC(=O)[C@H]([C@H](O)C(=O)O)NC1=O [PSEUDOMYCIN B] ({Tetradecanoyl(3R-OH)}-S[dDab]DK[Dab][aThr][Dhb][Asp(3S-OH)][Thr(4-Cl)]; ester 1-C)	Death
C/C=C1\NC(=O)[C@H]([C@H](C)O)NC(=O)[C@H](CCN)NC(=O)[C@H](CCCCN)NC(=O)[C@H](CC(=O)NCCC)NC(=O)[C@@H](CCN)NC(=O)[C@@H](NC(=O)C[C@H](O)CCCCCCCCCCC)COC(=O)[C@H]([C@H](O)CCl)NC(=O)[C@H]([C@H](O)C(=O)O)NC1=O	Death
